Data origin: patent US20240270821A1

Measured Relative cAMP EC50, listed per entry for reference.
test target: T1, human GIP receptor (human) (UniProt P48546)
T1 sequence (looked up): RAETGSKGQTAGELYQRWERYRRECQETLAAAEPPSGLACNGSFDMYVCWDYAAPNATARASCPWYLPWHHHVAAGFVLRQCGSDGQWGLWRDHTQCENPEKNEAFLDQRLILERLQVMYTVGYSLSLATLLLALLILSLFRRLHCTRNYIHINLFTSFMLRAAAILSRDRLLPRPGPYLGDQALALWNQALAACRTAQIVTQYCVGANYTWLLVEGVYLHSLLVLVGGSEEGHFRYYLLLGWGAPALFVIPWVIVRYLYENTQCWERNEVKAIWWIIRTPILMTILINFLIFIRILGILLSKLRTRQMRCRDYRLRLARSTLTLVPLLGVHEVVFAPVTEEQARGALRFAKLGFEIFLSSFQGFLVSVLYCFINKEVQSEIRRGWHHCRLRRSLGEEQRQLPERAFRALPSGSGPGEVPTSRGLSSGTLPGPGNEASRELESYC
test method notes: cell-based or functional assay
Non-standard residues stand in square brackets, D forms with d. No end group written: not given here. Phe(4-CN) = N#Cc1ccc(C[C@H](N)C(=O)O)cc1; αMePhe(2-F) = C[C@](N)(Cc1ccccc1F)C(=O)O; Aib = CC(C)(N)C(=O)O
Write the value in pM as a bare number.

Below: 2 binders and their reported Relative cAMP EC50.
{"binder": "Y[Aib]QGT[αMePhe(2-F)]TSD[Phe(4-CN)]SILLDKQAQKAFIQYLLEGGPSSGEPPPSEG-NH2 (not fully specified (residue 20)) [Example 353]", "readout kind": "Relative cAMP EC50", "measured result": 127}
{"binder": "YXQGTXTSDYSILLDKKAQXAFIEYLEEGGPSSGAPPPSE (synthetic construct; SITE 2: note = 2-Aminoisobutyric Acid; SITE 6: note = alpha-methyl-2-fluoro-L-phenylalanine; SITE 17: note = Lysine is chemically modified through conjugation of the epsilon-amino group of the Lysine side chain with (gamma-Glu)2-CO-(CH2)16-CO2H; SITE 20: note = 2-Aminoisobutyric) [Example 433]", "readout kind": "Relative cAMP EC50", "measured result": 20.6}

# evaluate next
Enquiry: Give the reported Relative cAMP EC50 for this binder. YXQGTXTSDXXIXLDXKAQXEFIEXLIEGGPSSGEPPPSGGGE (non-natural residues, AEEA-(γGlu)2-C18 diacid acyl on K, C-terminal amide; synthetic construct; SITE 2: note = 2-Aminoisobutyric Acid; SITE 6: note = alpha-methyl-2-fluoro-L-phenylalanine; SITE 10: note = 3-(4-Pyridyl)-L-alanine; SITE 11: note = alpha-methyl-L-serine; SITE 13: note = alpha-methyl-leucine; SITE 16: note = L-ornithine; SITE 17: note = Lysine is chemically mo) [Example 1181]
Return: 11.5
